Data origin, for the record: patent US20160046684A1

# System: PTP1B
# RUN_DESCRIPTION: Phosphatase activity of PTP1B constructs against pNPP (enzyme assay)
# Type: biochemical, human
# STUDY_CONDITIONS: pNPP substrate, pH 7.5, 0.15 μM PTP1B (FIG. 17)
OBSERVATION_TYPE: Km (µM)
Give the quantity in µM, number only.

Ask | Fill blank: measured Km of the molecule PTP1BY152F: PTP1B1-301 mutant with mutation in the L11 loop (protein, UniProt P18031 1-301, looked up, variant Y152F) MEMEKEFEQIDKSGSWAAIYQDIRHEASDFPCRVAKLPKNKNRNRYRDVSPFDHSRIKLHQEDNDYINASLIKMEEAQRSYILTQGPLPNTCGHFWEMVWEQKSRGVVMLNRVMEKGSLKCAQYWPQKEEKEMIFEDTNLKLTLISEDIKSFYTVRQLELENLTTQETREILHFHYTTWPDFGVPESPASFLNFLFKVRESGSLSPEHGPVVVHCSAGIGRSGTFCLADTCLLLMDKRKDPSSVDIKKVLLEMRKFRMGLIQTADQLRFSYLAVIEGAKFIMGDSSVQDQWKELSHEDLEP is ____.
Reply | 950
